# System: human CB2 receptors (Homo sapiens (Human), UniProt P34972)
# Sequence (P34972 whole entry): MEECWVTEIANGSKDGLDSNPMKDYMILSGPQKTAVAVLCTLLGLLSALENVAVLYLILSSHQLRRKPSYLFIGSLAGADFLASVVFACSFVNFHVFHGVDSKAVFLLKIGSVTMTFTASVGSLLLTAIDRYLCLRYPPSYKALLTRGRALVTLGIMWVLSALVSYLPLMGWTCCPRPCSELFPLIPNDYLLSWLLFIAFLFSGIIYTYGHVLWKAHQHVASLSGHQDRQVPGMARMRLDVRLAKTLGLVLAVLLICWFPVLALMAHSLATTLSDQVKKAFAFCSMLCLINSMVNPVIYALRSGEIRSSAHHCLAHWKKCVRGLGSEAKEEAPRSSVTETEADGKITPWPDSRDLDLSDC
# Experiment: functional cAMP assay, CHO cells expressing human CB2
# Type: cell-based
# Assay conditions: read-out: Human CB2 EC50
Measure: pEC50
pEC50 field: float, defined as -log10 of concentration (mol/L).

Cc1cnc(C(C)(CC2CC2)NC(=O)c2cc(OCC(F)(F)F)c(C3CC3)cn2)s1 (centres unmarked) ... 7.91
O=C(NCC1(CO)CCCC1)c1cc(OCC2CC2)c(Cl)cn1 ... 7.63
Cc1nc(C(C)(NC(=O)c2cc(OCC(F)(F)F)c(N3CCC(F)(F)C3)cn2)C2CC2)no1 (centres unmarked) ... 8.19
Cc1nc(C(C)(CC2CC2)NC(=O)c2cc(OCC(F)(F)F)c(C3CCC3)cn2)no1 (centres unmarked) ... 8.57
CC(CC1CC1)(NC(=O)c1cc(OCC(F)(F)F)c(C2CC2)cn1)c1noc(N)n1 (centres unmarked) ... 7.66
CC(C)(C)C(NC(=O)c1cc(OC2COC2)c(Cl)cn1)c1nccs1 (centres unmarked) ... 6.89

Please fill in: pEC50 reported for C[C@H](Oc1cc(C(=O)NC(C(=O)N2CCC23COC3)C(C)(C)C)ncc1C1CC1)C(F)(F)F (some centres unmarked) = 7.19

// field: pEC50; key: O=C(NCC1(O)CCCCC1)c1cc(OCC2CC2)c(Cl)cn1 ; value = 6.97
